Cited source for all entries: PubChem BioAssay (NCI)

- Tested on: HL-60(TB) leukemia
- assay: NCI tumour cell line growth inhibition, 48 h
Where TGI equals or exceeds 10 µM, the correct label is class 1; where it does not, the label is class 0.

                           molecular_string       system_tested      cat
0  CCOC(=O)N1CCN(CCCCCOc2ccccc2C2CCCCC2)CC1  HL-60(TB) leukemia  class 0
1  COc1ccc(OC)c2sc(N3C(=O)/C(=C/c4cccc([N+](=O)[O-])c4)N=C3c3ccccc3)nc12  HL-60(TB) leukemia  class 1
2  Cn1c(=O)nc2n(-c3ccc(Cl)c(C(F)(F)F)c3)c3ccccc3nc-2c1=O  HL-60(TB) leukemia  class 1
3  Cc1ccc(NC(=O)/C(Cc2nc3ccc([N+](=O)[O-])cc3[nH]c2=O)=N\NC(=O)C[n+]2ccccc2)c(C)c1  HL-60(TB) leukemia  class 1

###

- System: HL-60(TB) leukemia
- assay: NCI tumour cell line growth inhibition, 48 h; in the data active means GI50 below about 0.43 µM; inactive means the rest
Possible outcomes: TRUE = active, FALSE = inactive

In [3]: df
Out[3]:
                           molecular_string    cat
0  CC(C)[O-].CC(C)[O-].CN(CCN(C)Cc1cc(F)cc(F)c1[O-])Cc1cc(F)cc(F)c1[O-].[Ti+4]  FALSE
1  COc1cc2nc(-c3ccc(C(F)(F)F)cc3)cc(OCCCN3CCCC3)c2cc1OC  FALSE
2  CCNCCNc1cc(-c2ccc(C#N)cc2)c(C#N)c2nc3ccccc3n12  FALSE
3                CCn1c(-c2nonc2N)nc2ccncc21  FALSE
4  O=C1/C(=C/c2ccc([N+](=O)[O-])cc2)COc2ccc(O)cc21  FALSE
5  COC(=O)c1ccc2c(c1)C(=O)c1c-2n(CCCN=[N+]=[N-])c(=O)c2cc([N+](=O)[O-])ccc12  FALSE
6  COc1ccc(-c2cnoc2-c2cc(OC)c3c(c2)OCCO3)cc1   TRUE
7  COc1cccc(COc2cc(-n3cnc4ccccc43)sc2C(N)=O)c1  FALSE
8  O=C1c2ccccc2-c2c1c1c(NCCCO)nc3ccccc3c1n2Cc1ccccc1  FALSE
9  Clc1ccc2c(c1)N(c1ncnc3ccc(-c4cnc5[nH]ncc5c4)cc13)CC2   TRUE

###

- Tested on: SN12C renal
- assay: NCI tumour cell line growth inhibition, 48 h; in the data active = GI50 below about 0.43 µM; inactive = the rest
Classes used: True (active), False (inactive)

In [3]: df
Out[3]:
                                    compound    cat
 0                    OCc1ccc(N2CCOCC2)cc1Cl  False
 1  COc1ccc(C2=C(N3CCc4ccccc43)C(=O)NC2=O)cc1  False
 2  CC(C)Oc1ccc(C(=O)Cn2ccnc2)cc1-n1c(CN2CCN(C(=O)COc3ccc(Cl)cc3)CC2)nc2ccccc2c1=O  False
 3                CCn1c(-c2nonc2N)nc2ccncc21  False
 4  c1cnn2ncc(-c3ccnc(Nc4ccc5c(c4)OCCO5)n3)c2c1   True
 5  COc1ccc(Nc2nccc(N3CCN(c4c5ccc(Cl)cc5nc5ccc(OC)cc45)CC3)n2)cc1  False
 6  O=C(c1cccs1)C1NO[N+]([O-])=C1c1cccs1 (stereo not drawn)  False
 7  O=C(NCCN1CCNCC1)c1ccc(Nc2nc3ccccc3c3occc23)cc1  False
 8  CC(=O)[CH-]C(=O)c1ccccc1.CC(=O)[CH-]C(=O)c1ccccc1.CC1(C)OCC(C2OC3OC(C)(C)OC3C2[O-])O1.CC[O-].[Ti+4] (stereo not drawn)  False
 9  COc1ccc(-n2nc(C)c3c(Nc4ccc(NC(=O)Nc5ccc(Cl)c(C(F)(F)F)c5)cc4)ncnc32)cc1  False
10  CCNCCNc1cc(-c2ccc(C#N)cc2)c(C#N)c2nc3ccccc3n12  False
11  O=[N+]([O-])c1ccc(-c2cc3c(Nc4ccc(Cl)c(C(F)(F)F)c4)ncnc3s2)cc1  False
12  Fc1ccc2nc(-c3cc(-c4ccc5c(c4)OCO5)n[nH]3)[nH]c2c1  False
